Hey, just so you know, these numbers are from the supplement of paper PMC12645437.

target.or.system: T1, CRBN, Q96SW2;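 also: pooled lentiviral library of zinc finger degron-EGFP fusions in mCherry-positive Jurkat cells, FACS-sorted after compound exposure, with degron abundance counted by next-generation sequencing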
T1 chain: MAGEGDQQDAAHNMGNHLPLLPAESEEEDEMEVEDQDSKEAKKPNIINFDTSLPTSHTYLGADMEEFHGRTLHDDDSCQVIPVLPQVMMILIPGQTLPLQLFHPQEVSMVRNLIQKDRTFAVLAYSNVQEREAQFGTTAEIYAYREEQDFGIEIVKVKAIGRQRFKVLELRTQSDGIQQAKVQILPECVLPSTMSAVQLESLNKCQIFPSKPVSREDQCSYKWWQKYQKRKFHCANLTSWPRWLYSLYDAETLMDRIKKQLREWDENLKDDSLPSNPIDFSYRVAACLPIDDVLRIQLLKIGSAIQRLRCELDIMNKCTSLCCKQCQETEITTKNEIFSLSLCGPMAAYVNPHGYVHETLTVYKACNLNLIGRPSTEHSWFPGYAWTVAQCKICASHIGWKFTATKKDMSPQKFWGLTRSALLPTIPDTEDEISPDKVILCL
test.protocol: log2 fold change of degron read counts, EGFP-low vs EGFP+ sorted cells (limma voom), compound-induced degradation; higher = more compound-induced degradation of the degron-EGFP fusion; degrons are variants of IKZF1/3 zinc finger 2; compound dose not given here
run.conditions: Jurkat; 18 h; compound: compound 33 (diphenyl IMiD analogue)
Whole data set: some 8,300 sequences, median “log2 fold change of degron read counts, EGFP-low vs EGFP+ sorted cells (limma voom), compound-induced degradation” near -1.1, cut for the highest 2% near 3.2. The full list was thinned out, with the highest values kept by preference.
experimental.readout: log2 fold change of degron read counts
Give a plain numeric answer without units written out.

## Task I'd like to know its log2 fold change of degron read counts. The sequence in question is FQCNQCGHKFTQKGNLLRHIKL [46F_47Q_49N_50Q_52G_53H_54K_55F_67L_, Q9UKT9]
## Result -2.89

## Task Entry FWCPICGARFTQKGNLLRHIKL [46F_47W_49P_50I_52G_53A_54R_55F_67L_, Q9UKT9] please
## Result 1.23

## Task // next record FNCSVCGHVFTQKGNLLRHIKL [46F_47N_49S_50V_52G_53H_54V_55F_67L_, Q9UKT9]
## Result -2.91

## Task Let us now turn to LLCEICGFICTQKGNLLRHIKL [46L_47L_49E_50I_52G_53F_54I_55C_67L_, Q9UKT9]
## Result 0.146

## Task Similarly, FSCPICGARFTQKGNLLRHIKL [46F_47S_49P_50I_52G_53A_54R_55F_67L_, Q9UKT9] ?
## Result 0.555

## Task Continue with FICPVCGATFTQKGNLLRHIKL [46F_47I_49P_50V_52G_53A_54T_55F_67L_, Q9UKT9]
## Result 1.48

## Task Also check FHCNQCGARFTQKGNLLRHIKL [46F_47H_49N_50Q_52G_53A_54R_55F_67L_, Q9UKT9]
## Result -1.81
